# System: Vesicular stomatitis virus
# Experimental protocol: Antiviral activity against Vesicular stomatitis virus Indiana infected in A549 cells assessed as reduction in virus titer preincubated for 24 hrs followed by viral infection and measured after 72 hrs by microscopic analysis
# Type: functional, organism-based
The source made the active and inactive calls. The rule behind the calls is not given here.
Endpoint: Activity

| Test smiles | Measurement target | Value |
| --- | --- | --- |
| C=C(C)[C@@H]1CC[C@]2(COC(=O)CCCC(=O)N3CCSCC3)CC[C@]3(C)[C@H](CC[C@@H]4[C@@]5(C)CC[C@H](O)C(C)(C)[C@@H]5CC[C@]43C)[C@@H]12 | Vesicular stomatitis virus | inactive |
| C=C(C)[C@@H]1CC[C@]2(COC(=O)c3cccc(C(=O)O)c3)CC[C@]3(C)[C@H](CC[C@@H]4[C@@]5(C)CC[C@H](O)C(C)(C)[C@@H]5CC[C@]43C)[C@@H]12 | Vesicular stomatitis virus | inactive |
| C#CC1(NC(=O)/C(C)=C/C(=O)OC[C@]23CC[C@@H](C(=C)C)[C@@H]2[C@H]2CC[C@@H]4[C@@]5(C)CC[C@H](O)C(C)(C)[C@@H]5CC[C@@]4(C)[C@]2(C)CC3)CCCCC1 | Vesicular stomatitis virus | inactive |
| C=C(C)[C@@H]1CC[C@]2(COC(=O)c3ccccc3C(=O)O)CC[C@]3(C)[C@H](CC[C@@H]4[C@@]5(C)CC[C@H](O)C(C)(C)[C@@H]5CC[C@]43C)[C@@H]12 | Vesicular stomatitis virus | inactive |
| C#CCNC(=O)CCCC(=O)OC[C@]12CC[C@@H](C(=C)C)[C@@H]1[C@H]1CC[C@@H]3[C@@]4(C)CC[C@H](O)C(C)(C)[C@@H]4CC[C@@]3(C)[C@]1(C)CC2 | Vesicular stomatitis virus | inactive |
